# credit: ChEMBL document CHEMBL4368943

system: MCF7; assay: Inhibition of cell growth in human MCF7 cells after 4 days by wst-8-based colorimetric analysis; type: functional; conditions: MCF7, 96 h

compound	subject-of-test	GI50 (nM)
CCNCCc1ccc(CN(CC)c2cc(OC)ccc2[C@@H]2CCc3cc(O)ccc3C2)cc1	MCF7	0.028
O=C(c1ccc(OCCN2CCCCC2)cc1)c1c(-c2ccc(O)cc2)sc2cc(O)ccc12	MCF7	0.079
C[C@]12CC[C@@H]3c4ccc(O)cc4C[C@@H](CCCCCCCCC[S+]([O-])CCCC(F)(F)C(F)(F)F)[C@H]3[C@@H]1CC[C@@H]2O (some centres undefined)	MCF7	0.17
CCN(CCCCCOCC(=O)N[C@H](C(=O)N1C[C@H](O)C[C@H]1C(=O)N[C@@H](C)c1ccc(-c2scnc2C)cc1)C(C)(C)C)CCOc1ccc(C(=O)c2c(-c3ccc(O)cc3)sc3cc(O)ccc23)cc1	MCF7	0.77

----------
molecular target: von Hippel-Lindau disease tumor suppressor/Estrogen receptor/Cullin-2 (Homo sapiens, UniProt P03372+P40337+Q13617); assay: Protac activity against VHL/cullin2/ERalpha in human MCF7 cells assessed as ERalpha degradation by measuring ER protein/GADPH ratio at 1 nM after 4 hrs by Western blot analysis relative to control; type: cell-based
Sequence (P03372 whole entry, looked up): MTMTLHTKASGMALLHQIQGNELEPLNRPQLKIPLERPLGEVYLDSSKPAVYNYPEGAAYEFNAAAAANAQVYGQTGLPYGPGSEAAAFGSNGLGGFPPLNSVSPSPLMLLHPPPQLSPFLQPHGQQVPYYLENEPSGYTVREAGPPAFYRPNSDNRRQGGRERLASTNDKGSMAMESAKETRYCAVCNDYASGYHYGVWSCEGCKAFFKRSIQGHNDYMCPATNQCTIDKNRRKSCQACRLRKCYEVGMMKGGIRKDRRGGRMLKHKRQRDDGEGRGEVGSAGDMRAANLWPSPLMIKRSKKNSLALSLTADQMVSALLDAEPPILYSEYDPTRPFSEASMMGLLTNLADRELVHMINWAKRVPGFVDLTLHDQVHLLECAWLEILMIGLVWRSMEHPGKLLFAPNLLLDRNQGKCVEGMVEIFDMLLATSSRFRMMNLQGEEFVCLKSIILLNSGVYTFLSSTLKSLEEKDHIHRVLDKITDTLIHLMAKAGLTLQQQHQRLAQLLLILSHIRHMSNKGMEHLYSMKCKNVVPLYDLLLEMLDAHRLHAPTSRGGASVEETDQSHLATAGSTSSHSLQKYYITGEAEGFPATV
Sequence (P40337 whole entry, looked up): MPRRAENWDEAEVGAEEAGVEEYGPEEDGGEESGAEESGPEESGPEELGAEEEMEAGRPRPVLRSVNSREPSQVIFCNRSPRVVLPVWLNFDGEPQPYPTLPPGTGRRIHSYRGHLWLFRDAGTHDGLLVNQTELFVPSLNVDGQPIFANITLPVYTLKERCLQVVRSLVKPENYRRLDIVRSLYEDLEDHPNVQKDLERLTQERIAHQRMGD
Sequence (Q13617 whole entry, looked up): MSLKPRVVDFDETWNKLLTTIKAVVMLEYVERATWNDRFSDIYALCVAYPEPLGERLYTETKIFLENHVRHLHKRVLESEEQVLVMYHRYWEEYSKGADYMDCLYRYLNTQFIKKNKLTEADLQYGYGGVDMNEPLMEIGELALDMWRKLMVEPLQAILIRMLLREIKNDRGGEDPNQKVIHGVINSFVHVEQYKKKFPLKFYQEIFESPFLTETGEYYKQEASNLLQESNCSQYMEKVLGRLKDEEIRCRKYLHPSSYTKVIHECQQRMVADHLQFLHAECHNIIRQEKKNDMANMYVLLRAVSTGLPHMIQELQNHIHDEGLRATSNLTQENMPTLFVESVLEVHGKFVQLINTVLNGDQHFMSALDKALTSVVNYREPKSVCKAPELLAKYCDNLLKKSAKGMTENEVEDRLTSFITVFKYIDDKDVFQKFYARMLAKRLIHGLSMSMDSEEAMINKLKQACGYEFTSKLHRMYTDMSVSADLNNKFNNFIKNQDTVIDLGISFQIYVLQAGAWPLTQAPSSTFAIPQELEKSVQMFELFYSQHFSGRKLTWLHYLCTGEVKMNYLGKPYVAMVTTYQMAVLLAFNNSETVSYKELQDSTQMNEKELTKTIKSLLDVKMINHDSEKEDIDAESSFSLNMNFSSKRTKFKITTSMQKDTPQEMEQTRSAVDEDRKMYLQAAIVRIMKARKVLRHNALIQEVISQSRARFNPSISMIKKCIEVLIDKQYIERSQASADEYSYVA
Listed here: items and their measured Ratio.
assay-readout: Ratio

smiles-notation	assay-readout	measured-number
CCN(CCCCCCCC(=O)N[C@H](C(=O)N1C[C@H](O)C[C@H]1C(=O)NCc1ccc(-c2scnc2C)cc1)C(C)(C)C)CCOc1ccc(C(=O)c2c(-c3ccc(O)cc3)sc3cc(O)ccc23)cc1	Ratio	79
C#Cc1ccc([C@H](C)NC(=O)[C@@H]2C[C@@H](O)CN2C(=O)[C@@H](NC(=O)CCCCCCCN(CC)CCOc2ccc(C(=O)c3c(-c4ccc(O)cc4)sc4cc(O)ccc34)cc2)C(C)(C)C)cc1	Ratio	90
CCN(CCCCC(=O)N[C@H](C(=O)N1C[C@H](O)C[C@H]1C(=O)N[C@@H](C)c1ccc(-c2scnc2C)cc1)C(C)(C)C)CCOc1ccc(C(=O)c2c(-c3ccc(O)cc3)sc3cc(O)ccc23)cc1	Ratio	90
CCN(CCCCCOCC(=O)N[C@H](C(=O)N1C[C@H](O)C[C@H]1C(=O)N[C@@H](C)c1ccc(-c2scnc2C)cc1)C(C)(C)C)CCOc1ccc(C(=O)c2c(-c3ccc(O)cc3)sc3cc(O)ccc23)cc1	Ratio	8
CCN(CCC#Cc1cnn(CC(=O)N[C@H](C(=O)N2C[C@H](O)C[C@H]2C(=O)N[C@@H](C)c2ccc(-c3scnc3C)cc2)C(C)(C)C)c1)CCOc1ccc(C(=O)c2c(-c3ccc(O)cc3)sc3cc(O)ccc23)cc1	Ratio	139
CCN(CCCCCC(=O)N[C@H](C(=O)N1C[C@H](O)C[C@H]1C(=O)N[C@@H](C)c1ccc(-c2scnc2C)cc1)C(C)(C)C)CCOc1ccc(C(=O)c2c(-c3ccc(O)cc3)sc3cc(O)ccc23)cc1	Ratio	26

----------
Each entry below lists one item and its recorded Ratio value.
target: von Hippel-Lindau disease tumor suppressor/Estrogen receptor/Cullin-2 (Homo sapiens, UniProt P03372+P40337+Q13617); assay: Protac activity against VHL/cullin2/ERalpha in human MCF7 cells assessed as ERalpha degradation by measuring ER protein/GADPH ratio at 100 nM after 4 hrs by Western blot analysis relative to control; assay type: cell-based
assay-readout: Ratio

smiles-notation	assay-readout	measured-number
CCN(CCCCCC(=O)N[C@H](C(=O)N1C[C@H](O)C[C@H]1C(=O)N[C@@H](C)c1ccc(-c2scnc2C)cc1)C(C)(C)C)CCOc1ccc(C(=O)c2c(-c3ccc(O)cc3)sc3cc(O)ccc23)cc1	Ratio	12
CCN(CCOc1ccc(C(=O)c2c(-c3ccc(O)cc3)sc3cc(O)ccc23)cc1)CCC1CCN(CCCC(=O)N[C@H](C(=O)N2C[C@H](O)C[C@H]2C(=O)N[C@@H](C)c2ccc(-c3scnc3C)cc2)C(C)(C)C)CC1	Ratio	98
CCN(CCOCCOCCC(=O)N[C@H](C(=O)N1C[C@H](O)C[C@H]1C(=O)N[C@@H](C)c1ccc(-c2scnc2C)cc1)C(C)(C)C)CCOc1ccc(C(=O)c2c(-c3ccc(O)cc3)sc3cc(O)ccc23)cc1	Ratio	1.7
Cc1ncsc1-c1ccc([C@H](C)NC(=O)[C@@H]2C[C@@H](O)CN2C(=O)[C@@H](NC(=O)CCCCCCCN(C)CCOc2ccc(C(=O)c3c(-c4ccc(O)cc4)sc4cc(O)ccc34)cc2)C(C)(C)C)cc1	Ratio	46
CCN(CCCCCCCC(=O)N[C@H](C(=O)N1C[C@H](O)C[C@H]1C(=O)N[C@@H](C)c1ccc(C#N)cc1)C(C)(C)C)CCOc1ccc(C(=O)c2c(-c3ccc(O)cc3)sc3cc(O)ccc23)cc1	Ratio	80

----------
Attribute: Ratio
target: von Hippel-Lindau disease tumor suppressor/Estrogen receptor/Cullin-2 (Homo sapiens, UniProt P03372+P40337+Q13617); assay: Protac activity against VHL/cullin2/ERalpha in human MCF7 cells assessed as ERalpha degradation by measuring ER protein/GADPH ratio at 10 nM after 4 hrs by Western blot analysis relative to control; format: cell-based

smiles-notation	Ratio
CCN(CCOCCOCC(=O)N[C@H](C(=O)N1C[C@H](O)C[C@H]1C(=O)N[C@@H](C)c1ccc(-c2scnc2C)cc1)C(C)(C)C)CCOc1ccc(C(=O)c2c(-c3ccc(O)cc3)sc3cc(O)ccc23)cc1	0.4
Cc1ncsc1-c1ccc([C@H](C)NC(=O)[C@@H]2C[C@@H](O)CN2C(=O)[C@@H](NC(=O)CCCCCCCN(CCOc2ccc(C(=O)c3c(-c4ccc(O)cc4)sc4cc(O)ccc34)cc2)CC2CCC2)C(C)(C)C)cc1	1.3
Cc1ncsc1-c1ccc([C@H](C)NC(=O)[C@@H]2C[C@@H](O)CN2C(=O)[C@@H](NC(=O)CCCCCCCN(CCOc2ccc(C(=O)c3c(-c4ccc(O)cc4)sc4cc(O)ccc34)cc2)C(C)(C)C)C(C)(C)C)cc1	0.2
Cc1ncsc1-c1ccc([C@H](C)NC(=O)[C@@H]2C[C@@H](O)CN2C(=O)[C@@H](NC(=O)CCCCCCCN(C)CCOc2ccc(C(=O)c3c(-c4ccc(O)cc4)sc4cc(O)ccc34)cc2)C(C)(C)C)cc1	153
CCN(CCCCCCCCCC(=O)N[C@H](C(=O)N1C[C@H](O)C[C@H]1C(=O)N[C@@H](C)c1ccc(-c2scnc2C)cc1)C(C)(C)C)CCOc1ccc(C(=O)c2c(-c3ccc(O)cc3)sc3cc(O)ccc23)cc1	0.4

----------
Entries annotated with measured Ratio
target: von Hippel-Lindau disease tumor suppressor/Estrogen receptor/Cullin-2 (Homo sapiens, UniProt P03372+P40337+Q13617); test: Protac activity against VHL/cullin2/ERalpha in human MCF7 cells assessed as ERalpha degradation by measuring ER protein/GADPH ratio at 100 nM after 4 hrs by Western blot analysis relative to control; type: cell-based

smiles-notation	Ratio
CCN(CCCCCCC(=O)N[C@H](C(=O)N1C[C@H](O)C[C@H]1C(=O)N[C@@H](C)c1ccc(-c2scnc2C)cc1)C(C)(C)C)CCOc1ccc(C(=O)c2c(-c3ccc(O)cc3)sc3cc(O)ccc23)cc1	6
Cc1ncsc1-c1ccc([C@H](C)NC(=O)[C@@H]2C[C@@H](O)CN2C(=O)[C@@H](NC(=O)CCCCCCCN(CCOc2ccc(C(=O)c3c(-c4ccc(O)cc4)sc4cc(O)ccc34)cc2)C2CCCCC2)C(C)(C)C)cc1	0.1
Cc1ncsc1-c1ccc([C@H](C)NC(=O)[C@@H]2C[C@@H](O)CN2C(=O)[C@@H](NC(=O)CCCCCCCN(CCOc2ccc(C(=O)c3c(-c4ccc(O)cc4)sc4cc(O)ccc34)cc2)C2CC2)C(C)(C)C)cc1	0.1
CCN(CCCCCCCC(=O)N[C@H](C(=O)N1C[C@H](O)C[C@H]1C(=O)N[C@@H](C)c1ccc(-c2scnc2C)cc1)C(C)(C)C)CCOc1ccc(C(=O)c2c(-c3ccc(O)cc3)sc3cc(O)ccc23)cc1	0.3
CCC(=C(c1ccc(O)cc1)c1ccc(OCCN(CC)CCCCCCCC(=O)N[C@H](C(=O)N2C[C@H](O)C[C@H]2C(=O)N[C@@H](C)c2ccc(-c3scnc3C)cc2)C(C)(C)C)cc1)c1ccccc1	0.6
CCN(CCCCCCCC(=O)N[C@H](C(=O)N1C[C@H](O)C[C@H]1C(=O)N[C@@H](C)c1ccc(C(C)(C)C)cc1)C(C)(C)C)CCOc1ccc(C(=O)c2c(-c3ccc(O)cc3)sc3cc(O)ccc23)cc1	80
CCN(CCOCCOCC(=O)N[C@H](C(=O)N1C[C@H](O)C[C@H]1C(=O)N[C@@H](C)c1ccc(-c2scnc2C)cc1)C(C)(C)C)CCOc1ccc(C(=O)c2c(-c3ccc(O)cc3)sc3cc(O)ccc23)cc1	0.4
CCC(=C(c1ccccc1)c1ccc(OCCN(CC)CCCCCCCC(=O)N[C@H](C(=O)N2C[C@H](O)C[C@H]2C(=O)N[C@@H](C)c2ccc(-c3scnc3C)cc2)C(C)(C)C)cc1)c1ccccc1	2.4
CCN(CCOc1ccc(C(=O)c2c(-c3ccc(O)cc3)sc3cc(O)ccc23)cc1)CCN1CCN(CCCC(=O)N[C@H](C(=O)N2C[C@H](O)C[C@H]2C(=O)N[C@@H](C)c2ccc(-c3scnc3C)cc2)C(C)(C)C)CC1	24
CCN(CCCCCOCC(=O)N[C@H](C(=O)N1C[C@H](O)C[C@H]1C(=O)N[C@@H](C)c1ccc(-c2scnc2C)cc1)C(C)(C)C)CCOc1ccc(C(=O)c2c(-c3ccc(O)cc3)sc3cc(O)ccc23)cc1	0.3
Cc1ncsc1-c1ccc([C@H](C)NC(=O)[C@@H]2C[C@@H](O)CN2C(=O)[C@@H](NC(=O)CCCCCCCN(CCOc2ccc(C(=O)c3c(-c4ccc(O)cc4)sc4cc(O)ccc34)cc2)C(C)C)C(C)(C)C)cc1	0.2
CCNCCc1ccc(CN(CC)c2cc(OC)ccc2[C@@H]2CCc3cc(O)ccc3C2)cc1	159
CCN(CCCCCCCC(=O)N[C@H](C(=O)N1C[C@H](O)C[C@H]1C(=O)N[C@@H](C)c1ccc(C2CC2)cc1)C(C)(C)C)CCOc1ccc(C(=O)c2c(-c3ccc(O)cc3)sc3cc(O)ccc23)cc1	70
CCN(CCCCCCCC(=O)N[C@H](C(=O)N1C[C@H](O)C[C@H]1C(=O)N[C@@H](C)c1ccc(-c2scnc2C)cc1)C(C)(C)C)CCOc1ccc(Cn2c(-c3ccc(O)cc3)c(C)c3cc(O)ccc32)cc1	0.2
CCN(CCCCCCCCC(=O)N[C@H](C(=O)N1C[C@H](O)C[C@H]1C(=O)N[C@@H](C)c1ccc(-c2scnc2C)cc1)C(C)(C)C)CCOc1ccc(C(=O)c2c(-c3ccc(O)cc3)sc3cc(O)ccc23)cc1	3
CCN(CCOCCOCCOCCC(=O)N[C@H](C(=O)N1C[C@H](O)C[C@H]1C(=O)N[C@@H](C)c1ccc(-c2scnc2C)cc1)C(C)(C)C)CCOc1ccc(C(=O)c2c(-c3ccc(O)cc3)sc3cc(O)ccc23)cc1	0.4
Cc1ncsc1-c1ccc([C@H](C)NC(=O)[C@@H]2C[C@@H](O)CN2C(=O)[C@@H](NC(=O)CCCCCCCN(CCOc2ccc(C(=O)c3c(-c4ccc(O)cc4)sc4cc(O)ccc34)cc2)C2CCCC2)C(C)(C)C)cc1	0.1
CCN(CCCC(=O)N[C@H](C(=O)N1C[C@H](O)C[C@H]1C(=O)N[C@@H](C)c1ccc(-c2scnc2C)cc1)C(C)(C)C)CCOc1ccc(C(=O)c2c(-c3ccc(O)cc3)sc3cc(O)ccc23)cc1	135
CCN(CCCC#Cc1cnn(CCC(=O)N[C@H](C(=O)N2C[C@H](O)C[C@H]2C(=O)N[C@@H](C)c2ccc(-c3scnc3C)cc2)C(C)(C)C)c1)CCOc1ccc(C(=O)c2c(-c3ccc(O)cc3)sc3cc(O)ccc23)cc1	0.4
